Molecular target: T1, MBP-RAMP2-(GS)5-CTR ECD-H6 produced in E. coli (human, UniProt O60895 55-140; P30988-2 36-151)
T1 chain: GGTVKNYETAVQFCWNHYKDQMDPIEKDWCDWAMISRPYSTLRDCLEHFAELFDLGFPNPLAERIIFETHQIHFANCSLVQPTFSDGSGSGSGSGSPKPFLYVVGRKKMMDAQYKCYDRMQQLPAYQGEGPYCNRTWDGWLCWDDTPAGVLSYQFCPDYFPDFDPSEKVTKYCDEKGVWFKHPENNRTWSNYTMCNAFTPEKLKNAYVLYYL
Test: fluorescence polarisation
* marks the point of attachment. FITC = O=C1OC2(c3ccc(O)cc3Oc3cc(O)ccc32)c2ccc(NC(=S)*)cc21; Ahx = NCCCCCC(=O)O
measurement name: Kd (µM)
Answers are plain numbers, in µM.

*Q* Given the entry {FITC-Ahx}-ANFLVRLQTYPRTNVGANTY-NH2 [FITC-Ahx-AC413(6-25)] , report its measured Kd.
*A* 4.57
